Hi there, I'd appreciate the recorded Decrease for every entry that follows.
System: Mus musculus
test-protocol: Percent decrease in glucose of db/db mouse was measured at 100 mg/kg/day dosage.
Type: functional
Quick reminder: number only, in %, skip the unit.

Exercise: State its Decrease: O=C1NC(=O)C(CC#Cc2ccccc2)(S(=O)(=O)c2ccc(Br)cc2)S1 (stereo not given)
Key: 43

Exercise: Hello, please tell me recorded Decrease for this one: Cc1ccc(S(=O)(=O)C2(CC#Cc3ccc(F)cc3)SC(=O)NC2=O)cc1 (stereo not given)
Key: 65

Exercise: Read off the recorded Decrease for O=C1NC(=O)C(CC#Cc2ccc(C(F)(F)F)cc2)(S(=O)(=O)c2ccccc2)S1 (stereo not given)
Key: 59
